- TARGET_SYSTEM: EGFR (form in the assay not stated) (human, UniProt P00533 25-645, limits assumed)
- RUN_DESCRIPTION: ELISA, NEM conjugate 100 nM
EXPERIMENTAL_READOUT: binding ratio vs parent P54AR4-83v2 (ratio)
Answers are plain numbers, in ratio.

P54AR4-83v2 P50C, NEM conjugate (designed binder, NEM on Cys 50, His-tagged) LPAPKNLVVSEVTEDSARLSWDDPWAFYESFLIQYQESEKVGEAIVLTVCGSERSYDLTGLKPGTEYTVSIYGVHNVYKDTNMRGLPLSAIFTT ... 1.05

From here, focus on the item given below.
Q. Dear colleague, I am looking for the recorded binding ratio vs parent P54AR4-83v2 of the following binder: P54AR4-83v2 P24C, NEM conjugate (designed binder, NEM on Cys 24, His-tagged) LPAPKNLVVSEVTEDSARLSWDDCWAFYESFLIQYQESEKVGEAIVLTVPGSERSYDLTGLKPGTEYTVSIYGVHNVYKDTNMRGLPLSAIFTT
A. 0.85

All figures here come from patent US20170362301A1.
